- target_or_test_system: T1, human IL-23 (human, UniProt P29460 23-328; Q9NPF7 20-189)
- T1 construct: Recombinant (Ebioscience); HIS-tagged in flow cytometry, biotinylated in some assays; also called hIL-23; rhIL-23
- T1 sequence 1: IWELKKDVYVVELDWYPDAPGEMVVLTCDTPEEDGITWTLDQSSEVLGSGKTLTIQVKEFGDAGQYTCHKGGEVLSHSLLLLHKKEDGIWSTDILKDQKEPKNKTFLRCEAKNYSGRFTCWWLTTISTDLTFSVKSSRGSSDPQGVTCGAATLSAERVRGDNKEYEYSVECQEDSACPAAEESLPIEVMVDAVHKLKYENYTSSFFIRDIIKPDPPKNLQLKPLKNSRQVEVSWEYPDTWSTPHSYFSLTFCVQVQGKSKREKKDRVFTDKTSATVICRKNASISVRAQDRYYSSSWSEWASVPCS
- T1 sequence 2: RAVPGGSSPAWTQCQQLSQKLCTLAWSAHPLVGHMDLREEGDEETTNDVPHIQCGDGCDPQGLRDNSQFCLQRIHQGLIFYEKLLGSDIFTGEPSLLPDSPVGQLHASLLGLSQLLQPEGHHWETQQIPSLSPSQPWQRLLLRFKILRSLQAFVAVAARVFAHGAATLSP
- protocol_details: ELISA, coated IL-23
assay_readout: binding result

Lookup: Fill in the blank: the reported binding result of Antibody 40 (antibody, human IgG1, kappa, V domains shown, Superhumanized PMA204) VH: EVQLVQSGAEVKKPGATVKISCKVSGYTFTDYYMHWVQQAPGKGLEWMGWIDPENGDTEYAPKFQGRVTITADTSTDTAYMELSSLRSEDTAVYYCATCKELRYFDVWGQGTMVTVSS VL: EIVLTQSPDFQSVTPKEKVTITCRASQSISINLHWYQQKPDQSPKLLIKFASQSISGVPSRFSGSGSGTDFTLTINSLEAEDAATYYCQQSNSWPLTFGGGTKVEIKR is ____.
Found: binds

Lookup: Continue with Antibody 37 (antibody, human IgG1, kappa, V domains shown, Superhumanized, backmutated heavy chain) VH: EVQLVQSGAEVKKPGATVKISCKVSGYTFTDYYMHWVQQAPGKGLEWMGWIDPENGDTEYAPKFQGRVTITADTSTDTAYMELSSLRSEDTAVYYCNACKELRYFDVWGQGTMVTVSS VL: EIVLTQSPATLSLSPGERATLSCRASQSISINLHWYQQKPGQAPRLLIYFASQSISGIPARFSGSGSGTDFTLTISSLEPEDFAVYYCQQSNSWPLTFGGGTKVEIKR
Found: binds
